target: T1, biotinylated IgE Fc (UniProt P01854-1 104-428, biotinylated); assay: BLI (Octet), IgE Fc on sensor, 1:1 fit
T1 construct: also called IgE Fc (made in-house ALK, Denmark)
T1 sequence (P01854 other isoform, or with tags, fused parts or gaps): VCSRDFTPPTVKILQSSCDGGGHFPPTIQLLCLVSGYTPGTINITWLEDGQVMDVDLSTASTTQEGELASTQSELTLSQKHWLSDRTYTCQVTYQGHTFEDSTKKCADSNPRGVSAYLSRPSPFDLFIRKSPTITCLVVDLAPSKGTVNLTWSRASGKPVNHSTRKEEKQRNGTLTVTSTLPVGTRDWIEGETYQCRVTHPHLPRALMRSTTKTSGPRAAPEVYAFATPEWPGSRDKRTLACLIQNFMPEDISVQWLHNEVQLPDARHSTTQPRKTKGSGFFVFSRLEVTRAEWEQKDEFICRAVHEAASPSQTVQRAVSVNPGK
readout_name: Kd (nM)
All answers are understood in nM, so give the number only.

# binder, Kd, nM
measured = [
    ("sdAb B1 (VHH) VHH: QVQLQESGGGLVQTGGSLRLSCAVHGRTFSNTGMGWFRQAPGNERQFVAIISPSGTSTYYADSVKGRFTISRDPAKNTVYLQMNSLKMDDTAVYYCAASYGSNWSTLRHQRRNEYDAWGQGTQVAVS", 65),
    ("sdAb D1 (VHH) VHH: DVQLQESGGGLVQAGGSLRLSCAASGLTFSRCDMGWFRQAPGKEREFVARISANGASTHYADFVKGRFTISRDNAKNTVYLQMNYLKPEDTAVYICAAARVPVTWQLYDYWGQGTQVTVS", 3.2),
    ("sdAb A1 (VHH, also called sdAb 026; IGE026) VHH: EVQLLESGGGLVQPGGSLRLSCAASGFTFGNYDMAWVRQAPGKRPEWVSSIDTGGDITHYADSVKGRFTISRDNAKNTLYLQMNSLRPEDTAVYWCATDEEYALGPNEFDYYGQGTLVTVSS", 0.19),
    ("sdAb B3 (VHH) VHH: DVQLQESGGGLVQAGGSLRLSCAASGFIFRLAGMSWVRQAPGKGFEWVSGITMDGSTTNYADSVKGRFTISRDNSKNRLYLQMNSLKPEDTAVYYCARGAKGGYNDPRGQGTQVTVS", 0.28),
    ("sdAb B2 (VHH) VHH: QVQLVESGGGLVQAGGSLRLSCAVFGSTFSNNVADWYRQAPGKQRELVARISASGATREYGDSVKGRFTISRDDAKNTMYLQMNNLKPEDTAVYRCHKIEWEDLSRKDYWGQGTQVTVS", 0.11),
]

Now look at this entry.
# input Which Kd value is on record for sdAb D2 (VHH) VHH: DVQLQESGGGLVEAGGSLRLSCVASGRTFSGWSMGWFRQAPGKEREFVAAISWVGSWIGGTVYSNSVKGRFTISRDNARTTVYLQMNSLKPEDTAVYFCAAANSETPRIFASEYDYWGQGTQVTVS ?
# output 81
